biological target: DLL4 (human, UniProt Q9NR61); test: ELISA
Sequence (Q9NR61 27-524): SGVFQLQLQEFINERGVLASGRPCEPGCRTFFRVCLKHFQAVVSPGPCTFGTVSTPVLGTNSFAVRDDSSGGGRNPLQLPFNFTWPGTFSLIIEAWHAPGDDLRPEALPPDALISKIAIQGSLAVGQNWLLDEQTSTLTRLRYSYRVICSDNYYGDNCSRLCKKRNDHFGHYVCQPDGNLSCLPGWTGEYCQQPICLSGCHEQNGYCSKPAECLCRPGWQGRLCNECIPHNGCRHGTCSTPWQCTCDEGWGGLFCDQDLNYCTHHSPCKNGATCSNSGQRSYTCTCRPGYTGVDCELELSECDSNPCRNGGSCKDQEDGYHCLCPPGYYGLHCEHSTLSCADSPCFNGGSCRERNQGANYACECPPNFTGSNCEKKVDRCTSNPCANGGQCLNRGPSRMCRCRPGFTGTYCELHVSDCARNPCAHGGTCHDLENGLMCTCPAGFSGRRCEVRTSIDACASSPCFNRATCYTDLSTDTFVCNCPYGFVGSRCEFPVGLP
metric: EC50

Below: 4 binders and their reported EC50.
[
  {
    "binder": "DVD465 DLL4 arm (antibody, DVD-Ig outer) chain 1: EVQLVESGGGLVQPGGSLRLSCAASGFTFTDNWISWVRQAPGKGLEWVGYISPNSGFTYYADSVKGRFTISADTSKNTAYLQMNSLRAEDTAVYYCARDNFGGYFDYWGQGTLVTVSS chain 2: DIQMTQSPSSLSASVGDRVTITCRASQDVSTAVAWYQQKPGKAPKLLIYSASFLYSGVPSRFSGSGSGTDFTLTISSLQPEDFATTYYCQQSYTGTVTFGQGTKVEIKR",
    "EC50": "0.57 nM"
  },
  {
    "binder": "DVD518 DLL4 arm (antibody, V domains shown, DVD-Ig inner) VH: EVQLQQSGPELEKPGASVKISCKASGYSFTGYNMNWVKQSNGKSLEWIGNIDPYFGGTNYNQKFKGKATLTVDKSSSTAYMQLKSLTSEDSAVYYCARNYDYDGGCFDYWGQGTTLTVSS VL: QAVVTQESALTTSPGETVTLTCRSSTGAVTTSNYANWVQEKPDHLFTGLIGGTNNRAPGVPARFSGSLIGDKAALTITGAQTEDEAIYFCALWYSNHWVFGGGTKLTVLG",
    "EC50": "5.9 nM"
  },
  {
    "binder": "DVD512 DLL4 arm (antibody, V domains shown, DVD-Ig inner) VH: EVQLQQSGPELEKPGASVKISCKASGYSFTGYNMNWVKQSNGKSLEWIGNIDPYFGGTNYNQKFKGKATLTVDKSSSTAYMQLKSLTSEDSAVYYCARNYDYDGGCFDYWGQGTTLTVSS VL: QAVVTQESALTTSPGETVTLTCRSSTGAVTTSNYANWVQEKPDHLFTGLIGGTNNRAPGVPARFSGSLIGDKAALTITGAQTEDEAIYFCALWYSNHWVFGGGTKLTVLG",
    "EC50": "1.71 nM"
  },
  {
    "binder": "DVD533 DLL4 arm (antibody, V domains shown, DVD-Ig outer) VH: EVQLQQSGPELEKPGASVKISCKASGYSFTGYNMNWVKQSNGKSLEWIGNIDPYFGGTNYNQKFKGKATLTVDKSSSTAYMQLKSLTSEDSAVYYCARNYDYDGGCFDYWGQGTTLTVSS VL: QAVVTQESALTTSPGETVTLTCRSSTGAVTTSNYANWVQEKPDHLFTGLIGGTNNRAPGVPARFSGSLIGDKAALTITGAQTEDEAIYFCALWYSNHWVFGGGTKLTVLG",
    "EC50": "0.25 nM"
  }
]

Request: Can you look up the measured EC50 of DVD466 DLL4 arm (antibody, DVD-Ig inner) chain 1: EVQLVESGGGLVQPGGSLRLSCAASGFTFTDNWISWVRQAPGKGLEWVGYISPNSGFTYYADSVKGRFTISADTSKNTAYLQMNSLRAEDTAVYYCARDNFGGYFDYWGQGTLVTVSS chain 2: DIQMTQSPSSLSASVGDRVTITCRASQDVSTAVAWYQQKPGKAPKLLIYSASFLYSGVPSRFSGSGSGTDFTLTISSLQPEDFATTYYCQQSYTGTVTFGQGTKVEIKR for me?
Result: 19.8 nM
